The reported measurements were obtained from patent US9815851B2.

target: RORγ ligand binding domain (LBD) (Homo sapiens, UniProt P51449); construct: made in house; host or cells: E. coli BL-21 (BL3), vector pDEST15; test: TR-FRET Activity Assay (ligand sensing, RORγ-LBD / coactivator peptide interaction, LANCE); assay type: biochemical
Sequence (P51449 269-508 limits assumed): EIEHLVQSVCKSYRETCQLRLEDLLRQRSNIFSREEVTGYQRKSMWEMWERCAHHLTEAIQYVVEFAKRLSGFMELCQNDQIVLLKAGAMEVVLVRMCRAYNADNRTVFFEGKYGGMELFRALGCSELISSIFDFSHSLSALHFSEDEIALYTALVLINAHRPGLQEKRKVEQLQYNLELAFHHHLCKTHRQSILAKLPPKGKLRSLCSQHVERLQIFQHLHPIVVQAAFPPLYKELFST
value type: IC50 (nM)
Numeric only. Scale: nM

• COC(C)(C)c1cc(-c2cc(C(=O)NC3CCOCC3)c(C)n2CC2CCCCC2)cc(C2(C)CC2)c1 = 501
• Cc1c(C(=O)NCCN2CCOCC2)cc(-c2ccc(S(=O)(=O)NC(C)(C)C)c3ccccc23)n1CC1CCCCC1 = 1000
• Cc1c(C(=O)NC2CC(=O)C2)cc(-c2cc(C(C)(C)C)c3c(c2)C2(CCO3)CC2)n1CC1CCCCC1 = 631
• Cc1c(C(=O)NCCC(C)(C)C(=O)O)cc(-c2cc(C(C)(C)C)cc(C(F)(F)F)c2)n1CC1CCCCC1 = 2000
• Cc1c(C(=O)NC2CS(=O)(=O)C2)cc(-c2cc(C(C)(C)C)cc(C(C)(C)C)c2)n1CC1CCCCC1 = 251
• Cc1c(C(=O)NC[C@H]2CC[C@H](C(=O)O)CC2)cc(-c2cc(C(C)(C)C)c3c(c2)C2(CCO3)CC2)n1CC1CCCCC1 = 2000

Let us move to another entry and its IC50.
Q: GET /values?readout=IC50&item= "Cc1c(C(=O)NC2CCOCC2)cc(-c2ccc(S(=O)(=O)NC(C)(C)C(F)(F)F)c(C(F)(F)F)c2)n1CC1CCCCC1"
Ans: 200
